test system: EKVX; test: NCI tumour cell line growth inhibition, 48 h
Calls of active or inactive are those of the source. No stated cut-off is given here; in the data, active = GI50 up to about 1.1 µM and inactive = higher.
Items are presented alongside their recorded GI50.

Field: example entries. Status: answers known.
{"columns": ["molecule", "testTarget", "GI50"],
 "data": [
  ["O=C(O)C1CCc2ccc3ccccc3c2C1c1cccc2ccccc12 (centres undefined)", "EKVX", "30.5 µM (inactive)"],
  ["CCn1c(-c2ccccc2)cs/c1=N\\C(P(=O)(O)O)P(=O)(O)O", "EKVX", "> 100 µM (inactive)"],
  ["O=C1N2Cc3c4ccc5c3CN3C(=O)N6Cc7c(ccc(c7CN1C6(c1ccccc1)C23c1ccccc1)OCCOCCOc1cc(Br)c(Br)cc1OCCOCCO4)OCCOCCOc1cc(Br)c(Br)cc1OCCOCCO5 (centres undefined)", "EKVX", "> 100 µM (inactive)"]
]}

IN: Entry `Nc1nnc2nc(CC(=O)/C=C/c3ccccc3)c(=O)[nH]n12` : reported GI50 = ?
OUT: > 100 µM (inactive)

IN: Entry `CN(C)CCNC(=O)c1cccc2ccc(-c3cccnc3)nc12` : reported GI50 = ?
OUT: 4.47 µM (inactive)

IN: Entry `CCOC(C[Se]CC(OCC)OCC)OCC` : reported GI50 = ?
OUT: > 100 µM (inactive)

IN: Entry Cc1cccc(N2C(=O)C3ON(C(C(N)=O)c4ccccc4)C(c4c5ccccc5c(Cl)c5ccccc45)C3C2=O)c1C (centres undefined) : reported GI50 = ?
OUT: 9.23 µM (inactive)

IN: Entry COc1cc2c3c(c1OC)-c1c(ccc4c1OCO4)CC3(C#N)N(C(=O)c1ccccc1)CC2 (centres undefined) : reported GI50 = ?
OUT: 74.1 µM (inactive)

IN: Entry `Cc1c2c(cc3c1[nH]c1ccccc13)C(c1ccc(F)cc1)=NCC2` : reported GI50 = ?
OUT: 2.07 µM (inactive)

====

test system: NCI-H23; assay: NCI tumour cell line growth inhibition, 48 h
Activity calls are given as the source filed them. No stated cut-off is given here; in the data, active = GI50 up to about 1.1 µM and inactive = higher.
Items are presented alongside their recorded GI50.

{"columns": ["molecule", "GI50"],
 "data": [
  ["CCSc1cc(=O)n(C)c(=O)n1C", "> 100 µM (inactive)"],
  ["Cc1c(C)c(C)c(Cn2[nH]c(=O)n(C)c2=O)c(C)c1C", "> 100 µM (inactive)"],
  ["O=S(=O)(O)c1cc2ccc1/C=C\\c1ccc(cc1S(=O)(=O)O)/N=N\\c1ccc(c(S(=O)(=O)O)c1)/C=C\\c1ccc(cc1S(=O)(=O)O)/N=N\\2", "> 100 µM (inactive)"],
  ["COC(=O)C1=Nc2c(C)nn(-c3ccccc3)c2N=C(c2ccc(C)cc2)C1", "> 10 µM (inactive)"]
]}

The record that follows has no GI50 shown yet.
IN: Entry O=C1C(Cl)C(c2cccc(Cl)c2)N1c1ccc(-n2c(S)nc3ccccc3c2=O)cc1 (stereo not given) : reported GI50 = ?
OUT: 19.6 µM (inactive)

====

tested on: MOLT-4; assay: NCI tumour cell line growth inhibition, 48 h
Calls of active or inactive are those of the source. Cut-off read from the data, not from the text of the source: active = GI50 up to about 1.1 µM and inactive = higher.
Items are presented alongside their recorded GI50.

Field: example entries. Status: answers known.
{"columns": ["compound", "observed"],
 "data": [
  ["COc1c(O)ccc(C2=Cc3ccc(O)cc3OC2)c1OC", "6.82 µM (inactive)"],
  ["CC(=O)Nc1cc(C(=O)Nc2cc(C(=O)N3CC(CCl)c4c3cc(N)c3ccccc43)nn2C)nn1C (stereo not given)", "< 0.0112 µM (active)"],
  ["COC(=O)C1=Nc2c(C)nn(-c3ccccc3)c2N=C(c2ccc(C)cc2)C1", "> 10 µM (inactive)"],
  ["CCOC(=O)c1cccn1S(=O)(=O)c1cc(Cl)ccc1NC(=O)CC", "47.8 µM (inactive)"]
]}

IN: Entry `Cc1ccc2c(c1)c1ccc3c(c1n2C)C(=O)C=CC3=O` : reported GI50 = ?
OUT: 0.76 µM (active)

# credit: ChEMBL document CHEMBL1201862
